experimental_system: hERG (KCNH2) (Homo sapiens)
Sequence (Q12809 whole entry): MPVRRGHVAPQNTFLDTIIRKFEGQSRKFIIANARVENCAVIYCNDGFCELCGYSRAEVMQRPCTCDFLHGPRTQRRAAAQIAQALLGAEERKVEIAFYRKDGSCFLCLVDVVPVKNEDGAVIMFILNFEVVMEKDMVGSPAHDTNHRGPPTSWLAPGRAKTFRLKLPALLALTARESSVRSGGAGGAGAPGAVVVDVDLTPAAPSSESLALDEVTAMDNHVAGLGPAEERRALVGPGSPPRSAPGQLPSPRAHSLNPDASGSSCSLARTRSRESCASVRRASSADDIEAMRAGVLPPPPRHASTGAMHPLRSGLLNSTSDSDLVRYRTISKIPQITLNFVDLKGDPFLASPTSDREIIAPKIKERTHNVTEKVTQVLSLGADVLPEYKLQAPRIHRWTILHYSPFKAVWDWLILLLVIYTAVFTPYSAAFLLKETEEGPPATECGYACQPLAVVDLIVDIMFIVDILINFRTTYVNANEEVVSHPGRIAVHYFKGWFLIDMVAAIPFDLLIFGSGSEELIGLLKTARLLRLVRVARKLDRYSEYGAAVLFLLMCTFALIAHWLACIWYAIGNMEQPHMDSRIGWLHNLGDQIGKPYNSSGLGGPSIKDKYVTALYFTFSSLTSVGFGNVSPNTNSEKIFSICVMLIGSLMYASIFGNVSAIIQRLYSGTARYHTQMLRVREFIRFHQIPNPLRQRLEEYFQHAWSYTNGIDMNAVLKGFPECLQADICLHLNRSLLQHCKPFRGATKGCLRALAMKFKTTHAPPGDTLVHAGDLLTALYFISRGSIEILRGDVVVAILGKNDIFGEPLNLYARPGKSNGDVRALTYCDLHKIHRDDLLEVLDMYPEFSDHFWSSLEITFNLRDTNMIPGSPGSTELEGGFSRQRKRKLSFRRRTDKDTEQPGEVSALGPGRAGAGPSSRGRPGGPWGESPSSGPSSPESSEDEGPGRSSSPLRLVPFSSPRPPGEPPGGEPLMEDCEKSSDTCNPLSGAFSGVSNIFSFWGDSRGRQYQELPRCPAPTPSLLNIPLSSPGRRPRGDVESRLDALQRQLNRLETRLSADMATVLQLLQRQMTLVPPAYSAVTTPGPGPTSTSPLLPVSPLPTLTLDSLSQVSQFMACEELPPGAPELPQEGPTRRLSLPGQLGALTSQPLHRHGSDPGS
experimental_protocol: Inhibition of hERG at 10 uM relative to control
Format: toxicity
quantity: inhibition at 10 µM (%)

• COc1ccc(C(=O)C2CCN(C(=O)c3cc(C)c(C(=O)NC4CCN(Cc5ccc(C#N)cc5)CC4)cn3)CC2)cc1 = 59.8
• N#Cc1ccc(CN2CC[C@H](NC(=O)c3ccc(C(=O)N4CCC(C(=O)c5ccc(-n6cccn6)cc5)CC4)nc3)[C@@H](F)C2)cc1 = 98.4
• COc1ccc(C(=O)C2CCN(C(=O)c3ccc(C(=O)N[C@H]4CCN(Cc5ccc(C#N)cc5)C[C@@H]4F)cn3)CC2)cc1 (relative stereo) = 69.2
• COc1ccc(C(=O)C2CCN(C(=O)c3cc(C)c(C(=O)NC4CCN(Cc5ccc(OC)c(F)c5)CC4)cn3)CC2)cc1 = 58.4
• COc1ccc(C(=O)C2CCN(C(=O)c3ccc(C(=O)N[C@@H]4CCN(Cc5ccc(C#N)cc5)C[C@@H]4F)cn3)CC2)cc1 = 67.4
• COCCN(C(=O)c1ccc(C(=O)N2CCC(C(=O)c3ccc(OC)cc3)CC2)nc1)C1CCN(Cc2ccc(C#N)cc2)CC1 = 26.5
• COc1ccc(CN2CCC(NC(=O)c3cnc(C(=O)N4CCC(C(=O)c5ccc(OC)cc5)CC4)cc3C)CC2)cc1 = 62.5
• COc1ccc(C(=O)C2CCN(C(=O)c3ccc(C(=O)NC4CCN(Cc5ccc(C#N)cc5)CC4(F)F)cn3)CC2)cc1 (centres undefined) = 65
• COc1ccc(C(=O)C2CCN(C(=O)c3ccc(C(=O)N[C@@H]4CCN(Cc5ccc(C#N)cc5)C[C@@H]4C)cn3)CC2)cc1 = 46.9

The origin of these recorded values is ChEMBL document CHEMBL5375990.
